- Target System: JAK3 (Homo sapiens, UniProt P52333)
- Construct: purchased Carna 08-046
- Sequence (P52333 795-1124 limits assumed): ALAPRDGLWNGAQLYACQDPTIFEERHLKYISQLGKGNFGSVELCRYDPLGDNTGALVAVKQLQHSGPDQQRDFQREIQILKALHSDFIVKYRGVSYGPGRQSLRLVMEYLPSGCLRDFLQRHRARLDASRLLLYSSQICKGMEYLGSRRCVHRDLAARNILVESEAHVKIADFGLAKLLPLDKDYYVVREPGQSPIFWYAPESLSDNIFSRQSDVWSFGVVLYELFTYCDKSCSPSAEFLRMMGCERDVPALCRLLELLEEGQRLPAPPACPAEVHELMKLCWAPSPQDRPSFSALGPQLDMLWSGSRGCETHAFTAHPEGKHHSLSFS
- Measurement Description: JAK3 kinase inhibition, ADP-Glo luminescence assay
- Format: biochemical
- Measurement Context: substrate Poly (4:1 Glu, Tyr)
Hi there, I'd appreciate the recorded IC50 for every entry that follows.
Answer format: numeric, nM implied, no suffix.

Form: compound = CCc1cc(O)c(F)cc1-c1ccc2c(-c3nc(CNC(=O)c4cnc(N5CCOCC5)cn4)c[nH]3)n[nH]c2c1 [MDI-305] ; IC50 = 2.2

The compound identified as CCc1cc(O)c(F)cc1-c1ccc2c(-c3nc(CNC(=O)C4CC4)c[nH]3)n[nH]c2c1 [MDI-302] registered its IC50 at 0.812

Measured IC50 of CCc1cc(O)c(F)cc1-c1ccc2c(-c3nc(CNC(=O)N(C)CCO)c[nH]3)n[nH]c2c1 [Ex-16] : 0.43

Entry CCc1cc(O)c(F)cc1-c1ccc2c(-c3nc(CNC(=O)N4CC[C@H](O)C4)c[nH]3)n[nH]c2c1 [Ex-23] , IC50 reported as 0.49

====

Give measured IC50 for each item. Keep answers brief.
- Target System: JAK1 (Homo sapiens, UniProt P23458)
- Sequence (P23458 850-1154 limits assumed): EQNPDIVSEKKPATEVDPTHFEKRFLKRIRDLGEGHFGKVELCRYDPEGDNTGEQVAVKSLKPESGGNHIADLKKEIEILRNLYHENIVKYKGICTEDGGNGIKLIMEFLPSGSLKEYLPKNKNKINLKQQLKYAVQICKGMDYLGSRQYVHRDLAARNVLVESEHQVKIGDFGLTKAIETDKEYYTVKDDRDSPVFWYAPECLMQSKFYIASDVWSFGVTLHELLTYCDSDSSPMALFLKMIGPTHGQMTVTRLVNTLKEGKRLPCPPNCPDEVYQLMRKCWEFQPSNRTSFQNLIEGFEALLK
- Measurement Description: JAK1 kinase inhibition, ADP-Glo luminescence assay
- Type: biochemical
- Parameters: purchased Carna 08-144
- Measurement Context: substrate IRS1
Field: numeric (nM). Do not append units.

For this compound ( CCc1cc(O)c(F)cc1-c1ccc2c(-c3nc(CNC4CCN(C)C4)c[nH]3)n[nH]c2c1 (centres unmarked) [Ex-35] ), measured IC50 is 0.32

Reported IC50 of CCc1cc(O)c(F)cc1-c1ccc2c(-c3nc(CNc4cccnc4)c[nH]3)n[nH]c2c1 [Ex-14] : 0.47

IC50 reported for this compound CCc1cc(O)c(F)cc1-c1ccc2c(-c3nc(CN(C)C(=O)C4CC4)c[nH]3)n[nH]c2c1 [Ex-10] : 1.2

The reported value for CCc1cc(O)c(F)cc1-c1ccc2c(-c3nc(CN4CCC(O)CC4)c[nH]3)n[nH]c2c1 [Ex-9] in terms of IC50 is 1.3

IC50 recorded for this compound, CCc1cc(O)c(F)cc1-c1ccc2c(-c3nc(CNC4CCOC4)c[nH]3)n[nH]c2c1 (centres unmarked) [Ex-32] , is 0.27

====

Give IC50 for every item shown.
- Target System: JAK1 (Homo sapiens)
- Measurement Description: JAK1 kinase inhibition, ADP-Glo luminescence assay
- Format: biochemical
- Parameters: purchased Carna 08-144
- Measurement Context: substrate IRS1
// units = nM; emit number, no label

Record summary for CCc1cc(O)c(F)cc1-c1ccc2c(-c3nc(CNC(=O)N4CCC(O)CC4)c[nH]3)n[nH]c2c1 : reported IC50 = 0.1

# IC50 (molecule: CCc1cc(O)c(F)cc1-c1ccc2c(-c3nc(CN4CCC(C#N)C4)c[nH]3)n[nH]c2c1 (centres unmarked) ) is 0.1

Given item CCc1cc(O)c(F)cc1-c1ccc2c(-c3nc(CNS(=O)(=O)C4CC4)c[nH]3)n[nH]c2c1 , the value recorded as its IC50 is 0.15

Value of IC50 reported for the molecule CCc1cc(O)c(F)cc1-c1ccc2c(-c3nc(CNC(=O)N(C)CCO)c[nH]3)n[nH]c2c1 is 0.16

IC50 recorded for this molecule, CCc1cc(O)c(F)cc1-c1ccc2c(-c3nc(CNS(C)(=O)=O)c[nH]3)n[nH]c2c1 , is 0.172

Summary for this molecule, CCc1cc(O)c(F)cc1-c1ccc2c(-c3nc(CNS(=O)(=O)CC)c[nH]3)n[nH]c2c1 : IC50 is 0.33

The reported IC50 of the molecule CCc1cc(O)c(F)cc1-c1ccc2c(-c3nc(CNc4cnn(C)c4)c[nH]3)n[nH]c2c1 was 0.29

Kindly note the recorded IC50 for CCc1cc(O)c(F)cc1-c1ccc2c(-c3nc(CNC(=O)C(C)C)c[nH]3)n[nH]c2c1 , which is 0.43

GET /value?item= CCc1cc(O)c(F)cc1-c1ccc2c(-c3nc(CN4CCC(C#N)CC4)c[nH]3)n[nH]c2c1 &field=IC50 returns 0.31

response.value for CCc1cc(O)c(F)cc1-c1ccc2c(-c3nc(CN(C)CCO)c[nH]3)n[nH]c2c1 (field: IC50) = 0.37

For reference, reported IC50 for CCc1cc(O)c(F)cc1-c1ccc2c(-c3nc(CNC(=O)OC)c[nH]3)n[nH]c2c1 stands at 0.43

Noted for CCc1cc(O)c(F)cc1-c1ccc2c(-c3nc(CNC(=O)N4CCN(C)CC4)c[nH]3)n[nH]c2c1 : its IC50 reads 0.1

molecule CCc1cc(O)c(F)cc1-c1ccc2c(-c3nc(CNS(=O)(=O)C(C)C)c[nH]3)n[nH]c2c1 , IC50 observed: 0.4

The molecule listed as CCc1cc(O)c(F)cc1-c1ccc2c(-c3nc(CN4CCOCC4)c[nH]3)n[nH]c2c1 shows IC50 equal to 0.48

IC50 measured on CCc1cc(O)c(F)cc1-c1ccc2c(-c3nc(CN(C)C(=O)N4CC[C@@H](O)C4)c[nH]3)n[nH]c2c1 = 0.21

Per the records, this molecule ( CCc1cc(O)c(F)cc1-c1ccc2c(-c3nc(CN4CCN(CC)CC4)c[nH]3)n[nH]c2c1 ) has IC50 equal to 0.1

So, CCc1cc(O)c(F)cc1-c1ccc2c(-c3nc(CNC4CCC4)c[nH]3)n[nH]c2c1 ? Its IC50 was 0.1

// sample CCc1cc(O)c(F)cc1-c1ccc2c(-c3nc(CNC(=O)C4CC4)c[nH]3)n[nH]c2c1 , its IC50 was 0.359

Record CCc1cc(O)c(F)cc1-c1ccc2c(-c3nc(CNC(=O)c4cnc(N5CCOCC5)cn4)c[nH]3)n[nH]c2c1 . Reported IC50: 3.18

IC50 recorded for this molecule, CCc1cc(O)c(F)cc1-c1ccc2c(-c3nc(CNC(=O)N4CCOCC4)c[nH]3)n[nH]c2c1 , is 0.11

Entry CCc1cc(O)c(F)cc1-c1ccc2c(-c3nc(CNC(=O)C4CCN(C)C4)c[nH]3)n[nH]c2c1 (centres unmarked) — recorded IC50 = 1.1

Reported IC50 ( CCc1cc(O)c(F)cc1-c1ccc2c(-c3nc(CNC(=O)OCCC#N)c[nH]3)n[nH]c2c1 ) = 0.92

Reported IC50 for CCc1cc(O)c(F)cc1-c1ccc2c(-c3nc(CNC(=O)N4CC[C@H](O)C4)c[nH]3)n[nH]c2c1 was 0.15

IC50 measured on CCc1cc(O)c(F)cc1-c1ccc2c(-c3nc(CN4CC[C@H](O)C4)c[nH]3)n[nH]c2c1 = 0.104

Lab note: measured IC50 of CCc1cc(O)c(F)cc1-c1ccc2c(-c3nc(CNC(=O)C4CCC4)c[nH]3)n[nH]c2c1 was 0.14

Notebook: CCc1cc(O)c(F)cc1-c1ccc2c(-c3nc(CN4CC5CCC4CC5)c[nH]3)n[nH]c2c1 , IC50 read as 0.52

Kindly note the recorded IC50 for CCc1cc(O)c(F)cc1-c1ccc2c(-c3nc(CNC(=O)c4cnn(C)c4)c[nH]3)n[nH]c2c1 , which is 0.15

response.value for CCc1cc(O)c(F)cc1-c1ccc2c(-c3nc(CNC(=O)N4CC[C@@H](O)C4)c[nH]3)n[nH]c2c1 (field: IC50) = 0.14

For reference, reported IC50 for CCc1cc(O)c(F)cc1-c1ccc2c(-c3nc(CNC(=O)c4cnc(N5CCCCC5)cn4)c[nH]3)n[nH]c2c1 stands at 1.96

Record summary for CCc1cc(O)c(F)cc1-c1ccc2c(-c3nc(CNc4ccccn4)c[nH]3)n[nH]c2c1 : reported IC50 = 0.58

Looking up CCC(=O)NCc1c[nH]c(-c2n[nH]c3cc(-c4cc(F)c(O)cc4CC)ccc23)n1 , I see its IC50 listed as 0.317

The recorded IC50 for entry CCc1cc(O)c(F)cc1-c1ccc2c(-c3nc(CNCC4CC4)c[nH]3)n[nH]c2c1 equals 0.36

====

- Target System: JAK3 (Homo sapiens)
- Construct: purchased Carna 08-046
- Measurement Description: JAK3 kinase inhibition, ADP-Glo luminescence assay
- Assay type: biochemical
- Measurement Context: substrate Poly (4:1 Glu, Tyr)
Measurement Name: log10 of IC50 (log10 of the value in nM)
Plainly stated, the numbers are log10 of IC50 given in nM.

Form: compound = CCc1cc(O)c(F)cc1-c1ccc2c(-c3nc(CNC4CCOC4)c[nH]3)n[nH]c2c1 (stereo not shown) ; log10 of IC50 = 0.28

Measured log10 of IC50 of CCc1cc(O)c(F)cc1-c1ccc2c(-c3nc(CNC(=O)OCCC#N)c[nH]3)n[nH]c2c1 : 0.64

So for CCc1cc(O)c(F)cc1-c1ccc2c(-c3nc(CN4CCOCC4)c[nH]3)n[nH]c2c1 , the logged log10 of IC50 turned out to be 0.23

Note to self: log10 of IC50 recorded for CCc1cc(O)c(F)cc1-c1ccc2c(-c3nc(CNS(=O)(=O)CC)c[nH]3)n[nH]c2c1 was 0.36

The compound listed as CCc1cc(O)c(F)cc1-c1ccc2c(-c3nc(CN4CC[C@H](O)C4)c[nH]3)n[nH]c2c1 shows log10 of IC50 equal to -0.22

// log10 of IC50 lookup, compound = CCc1cc(O)c(F)cc1-c1ccc2c(-c3nc(CNC(=O)OC)c[nH]3)n[nH]c2c1 , result: -0.24

Per the records, this compound ( CCc1cc(O)c(F)cc1-c1ccc2c(-c3nc(CNC4CCC4)c[nH]3)n[nH]c2c1 ) has log10 of IC50 equal to 0.57

Entry CCc1cc(O)c(F)cc1-c1ccc2c(-c3nc(CNS(=O)(=O)C4CC4)c[nH]3)n[nH]c2c1 — recorded log10 of IC50 = 0.04

Measured log10 of IC50 of CCc1cc(O)c(F)cc1-c1ccc2c(-c3nc(CNC(=O)C4CCC4)c[nH]3)n[nH]c2c1 : 0.00

Form: compound = CCc1cc(O)c(F)cc1-c1ccc2c(-c3nc(CN4CCN(CC)CC4)c[nH]3)n[nH]c2c1 ; log10 of IC50 = 0.32

# log10 of IC50 of CCc1cc(O)c(F)cc1-c1ccc2c(-c3nc(CN(C)CCO)c[nH]3)n[nH]c2c1 = 0.52

// recorded log10 of IC50 for CCc1cc(O)c(F)cc1-c1ccc2c(-c3nc(CNC(=O)N4CC[C@@H](O)C4)c[nH]3)n[nH]c2c1 : -0.32

CCc1cc(O)c(F)cc1-c1ccc2c(-c3nc(CNC(=O)C(C)C)c[nH]3)n[nH]c2c1 has a reported log10 of IC50 of 0.13

Memo: CCc1cc(O)c(F)cc1-c1ccc2c(-c3nc(CNc4cccnc4)c[nH]3)n[nH]c2c1 , reported log10 of IC50: 0.20

Documented log10 of IC50 of CCc1cc(O)c(F)cc1-c1ccc2c(-c3nc(CN(C)C(=O)N4CC[C@@H](O)C4)c[nH]3)n[nH]c2c1 : -0.19

Noted for CCc1cc(O)c(F)cc1-c1ccc2c(-c3nc(CNC(=O)N4CCC(O)CC4)c[nH]3)n[nH]c2c1 : its log10 of IC50 reads -0.37
